# study system: human angiotensin-converting enzyme 1 (hACE1) (human, UniProt P12821 30-1256)
# Sequence (P12821 30-1256): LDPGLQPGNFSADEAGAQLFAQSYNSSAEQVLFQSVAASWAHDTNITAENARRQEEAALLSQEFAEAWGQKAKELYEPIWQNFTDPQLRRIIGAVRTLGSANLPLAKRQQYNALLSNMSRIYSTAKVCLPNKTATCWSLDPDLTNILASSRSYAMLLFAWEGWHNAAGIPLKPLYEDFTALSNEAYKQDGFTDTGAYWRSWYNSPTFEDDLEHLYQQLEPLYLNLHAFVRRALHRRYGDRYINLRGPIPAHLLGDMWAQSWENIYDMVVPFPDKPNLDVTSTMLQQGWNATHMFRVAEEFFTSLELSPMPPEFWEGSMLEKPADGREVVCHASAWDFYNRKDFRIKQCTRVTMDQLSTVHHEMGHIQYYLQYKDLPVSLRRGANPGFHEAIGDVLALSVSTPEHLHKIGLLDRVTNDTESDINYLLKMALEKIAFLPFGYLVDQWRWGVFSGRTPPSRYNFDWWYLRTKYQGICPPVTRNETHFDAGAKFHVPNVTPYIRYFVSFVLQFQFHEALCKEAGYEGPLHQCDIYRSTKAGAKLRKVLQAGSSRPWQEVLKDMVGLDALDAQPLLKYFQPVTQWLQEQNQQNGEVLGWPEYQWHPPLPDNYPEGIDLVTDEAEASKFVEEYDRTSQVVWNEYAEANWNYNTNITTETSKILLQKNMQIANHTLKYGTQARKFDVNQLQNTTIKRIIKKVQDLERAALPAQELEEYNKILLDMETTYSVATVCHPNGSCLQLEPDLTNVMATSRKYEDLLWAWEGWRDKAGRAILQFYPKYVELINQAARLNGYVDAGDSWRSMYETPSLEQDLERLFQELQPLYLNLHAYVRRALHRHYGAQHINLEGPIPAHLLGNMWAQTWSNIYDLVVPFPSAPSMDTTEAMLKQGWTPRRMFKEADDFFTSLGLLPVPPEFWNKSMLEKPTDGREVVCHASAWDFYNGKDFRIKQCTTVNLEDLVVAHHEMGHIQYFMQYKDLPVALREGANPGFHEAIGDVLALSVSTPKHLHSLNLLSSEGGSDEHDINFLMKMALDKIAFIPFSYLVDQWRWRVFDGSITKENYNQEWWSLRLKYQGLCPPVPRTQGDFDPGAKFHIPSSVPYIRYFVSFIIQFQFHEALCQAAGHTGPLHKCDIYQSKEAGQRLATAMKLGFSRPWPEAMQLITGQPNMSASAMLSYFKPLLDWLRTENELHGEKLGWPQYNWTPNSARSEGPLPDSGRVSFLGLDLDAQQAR
# test details: enzyme inhibition assay
# recorded conditions: both partners purified
pKi: −log10 of the molar value. Bridges are numbered along the chain shown (N, C = ends). Where no end group is shown, it is not given here.
metric: pKi

The recorded pKi for GDYSHCSPLRYYPWWKCTYPDPEGGG (disulfide 6-17 (inferred), source: bought: Selleck Chemicals LLC) [DX600, disulfide-constrained cyclic peptide inhibitor of hACE2] is < 4.00
